Values were extracted from PubChem BioAssay (NCI).

Can you tell me log10 of TGI for the items I'm about to list?
Tested on: SK-MEL-2 melanoma
assay_text: NCI tumour cell line growth inhibition, 48 h
Each number you see is log10 of TGI, and the unit inside the log is µM.

I would be grateful if you could provide log10 of TGI for each of the following entries.
1. COc1ccc(COc2cc3oc(=O)c4cc(C(C)O)ccc4c3cc2OC)cc1 (centres undefined)
2. CC(C)N(Cc1ccc(F)cc1)c1ccc(CO)c(Cl)c1
3. C=CCN(CC=C)C(=O)[C@H](CC)[C@@H]1CC[C@@H](C)[C@@H]([C@H](C)[C@@H](O)[C@@H](C)C(=O)[C@H](CC)C2O[C@]3(C=C[C@@H](O)[C@]4(CC[C@@](C)([C@H]5CC[C@](O)(CC)[C@H](C)O5)O4)O3)[C@H](C)C[C@@H]2C)O1 (some centres undefined)
4. O=C1C(Sc2ccc3ccccc3c2)=C(Sc2ccc3ccccc3c2)C(=O)c2ccccc21
5. COc1cc2c(cc1NC(=O)C(Cl)Cl)-c1ccc(NC(=O)C(Cl)Cl)cc1C2

Ans.
1.48
1.22
0.87
1.29
0.32

I would be grateful if you could provide log10 of TGI for each of the following entries.
1. CC(C)=CC(=O)OC1C2C(C)=CC(O)C(O)C2(C)C2C3(O)OCC24C(CC(=O)OC14)C(C)C3O (centres undefined)
2. CC1CCN(CCOc2ccc(CNc3ccc4nc(CCC5CCCCC5)[nH]c4c3)cc2)CC1
3. CCN(Cc1ccc(F)cc1)c1ccc(CO)c(C(F)(F)F)c1

Ans.
[-0.18, 0.53, 1.51]
